assay: Stability in cynomolgus monkey fecal homogenate (anaerobic); type: in vitro ADME; conditions: pH 6.8, 20% cynomolgus monkey fecal homogenate, 37° C., up to 24 hours, read-out: t1/2: Monkey Feces anaerobic (converted)
*1 amine or outer side, *2 acyl side, *3 side chain or, on linkers, in order; H or OH if unused. Where a SMILES comes first, the peptide text is derived from it. Bridges are numbered along the chain shown (N, C = ends). [ ]: non-standard residue; d: D form. Trp(7-Ph) = N[C@@H](Cc1c[nH]c2c(-c3ccccc3)cccc12)C(=O)O; Abu(4-yl) = O=C([C@H](CC[*:3])N[*:1])[*:2]; 2Nal = N[C@@H](Cc1ccc2ccccc2c1)C(=O)O; AEF = NCCOc1ccc(C[C@H](N)C(=O)O)cc1; αMeK = C[C@](N)(CCCCN)C(=O)O
Parameter measured: half-life at 20 μM

Which value of half-life at 20 μM has been reported for CC(=O)NCCCC[C@@H]1NC(=O)[C@H](Cc2c[nH]c3c(-c4ccccc4)cccc23)NC(=O)[C@H]([C@@H](C)O)NC(=O)[C@H](CCC(N)=O)NC(=O)[C@@H](NC(C)=O)CCSC[C@@H](C(=O)N[C@@H](Cc2ccc(OCCN)cc2)C(=O)N[C@@H](Cc2ccc3ccccc3c2)C(=O)N[C@@](C)(CCCCN)C(=O)N[C@@H](CCCCNC(C)=O)C(=O)N[C@@H](CC(N)=O)C(=O)N[C@H](CC(C)C)C(N)=O)NC1=O [Peptide 18] (Ac-[Abu(4-yl)]QT[Trp(7-Ph)]K(Ac)C[AEF][2Nal][αMeK]K(Ac)N[dL]-NH2; thioether 1-6) in the records?
> 24 h
